assay: Enabling form study: solubility from RT slurry in solvents (Table 2); type: physicochemical; details: isopropanol, organic solvent or mixture, thermodynamic from solid, IPA
measure.name: solubility

Which solubility is reported for this compound? "CC(=O)c1nn(CC(=O)N2[C@H](C(=O)Nc3nc(Br)ccc3C)C[C@@]3(C)C[C@@H]23)c2ccc(-c3cnc(C)nc3)cc12"
~5600 µg/mL

* * *

test: Interconversion experiments: heat stress of forms (Table 6); assay type: physicochemical; conditions: ~50° C., no solvent
measure.name: Interconversion: XRPD Result after heating

compound	measured
CC(=O)c1nn(CC(=O)N2[C@H](C(=O)Nc3nc(Br)ccc3C)C[C@@]3(C)C[C@@H]23)c2ccc(-c3cnc(C)nc3)cc12 [Form J + Form L]	Form G
CC(=O)c1nn(CC(=O)N2[C@H](C(=O)Nc3nc(Br)ccc3C)C[C@@]3(C)C[C@@H]23)c2ccc(-c3cnc(C)nc3)cc12 [Form E]	Form G
CC(=O)c1nn(CC(=O)N2[C@H](C(=O)Nc3nc(Br)ccc3C)C[C@@]3(C)C[C@@H]23)c2ccc(-c3cnc(C)nc3)cc12 [Form G]	Form G

* * *

test: Solvent experiments (solubility, Example 3); assay type: physicochemical; conditions: heptane, organic solvent or mixture
measure.name: solubility
Note: a bare number is incomplete; add the unit.

Item under review: "CC(=O)c1nn(CC(=O)N2[C@H](C(=O)Nc3nc(Br)ccc3C)C[C@@]3(C)C[C@@H]23)c2ccc(-c3cnc(C)nc3)cc12" . Reported solubility?
865 µg/mL

* * *

Test: Solvent solubility screen by solvent addition (lyophilized material)
Format: physicochemical
Conditions: organic solvent or mixture, thermodynamic from solid; 50% 2-propanol/50% heptane and 50% ethanol/50% heptane (% v/v); read-out: Solubility (solvent addition)
Experimental: A solvent solubility screen was conducted using 32 solvent systems. Approximately 360 mg of Compound 3 Form A was weighed into a 20 mL glass vial and dissolved using 18 mL of 1,4-dioxane. 0.5 mL of the solution was then dispensed into thirty-four 2 mL glass vials (approx. 10 mg per vial). The Compound 3 Form A solutions were then frozen (at −50° C.) and dried by lyophilization using a Lablyo mini freeze drier. Post-lyophilization, a sub-sample was taken and analyzed by XRPD. […]
measure.name: solubility

Which solubility reading was recorded for the compound "CC(=O)c1nn(CC(=O)N2[C@H](C(=O)Nc3nc(Br)ccc3C)C[C@@]3(C)C[C@@H]23)c2ccc(-c3cnc(C)nc3)cc12" ?
> 100 mg/mL

* * *

assay: Solvent experiments (solubility, Example 3); assay type: physicochemical; conditions: UPLC Water
measure.name: solubility
Field note: include the unit after the figure.

What does the record list as solubility for "CC(=O)c1nn(CC(=O)N2[C@H](C(=O)Nc3nc(Br)ccc3C)C[C@@]3(C)C[C@@H]23)c2ccc(-c3cnc(C)nc3)cc12" ?
1.04 mg/mL

* * *

assay: Solubility in selected media (FaSSIF, FeSSIF, FaSSGF, pH 4 citrate, pH 6.8 phosphate); assay type: physicochemical; details: FaSSIF, pH 6.5, fassif, thermodynamic from solid; read-out: Solubility: HPLC Result
measure.name: solubility

Entry under review: CC(=O)c1nn(CC(=O)N2[C@H](C(=O)Nc3nc(Br)ccc3C)C[C@@]3(C)C[C@@H]23)c2ccc(-c3cnc(C)nc3)cc12 [Compound 3 Form A] . Reported solubility?
< 10 µg/mL
